Source of measurements: the supplement of paper PMC8007513

Test system: Trichoderma virens ATCC 9645
Assay: growth yield (OD600) relative to untreated control; higher = less growth inhibition
Conditions: compound concentration: 100 uM; 72 h
Counter-ions that a name gives are not always drawn. Among all 1,300 compounds or so, about 75 (6%) showed an effect of 50% or more. Many of the other results were omitted from the sample, so strong results are more common in it than they were.
measured_endpoint: growth yield (%)
Response body: numeric value in %, unit text excluded.

Req: What value of measured growth yield is listed for CCC(=O)[C@@]1(C)[C@H](C)C[C@H]2[C@@H]3CCC4=CC(=O)C=C[C@]4(C)[C@H]3[C@@H](O)C[C@@]21C [Rimexolone] ?
Resp: 106

Req: What value of measured growth yield is listed for CCCCOC(=O)c1ccc(N)cc1 ?
Resp: 73

Req: What value of measured growth yield is listed for Nc1nc(NC2CC2)c2ncn([C@H]3C=C[C@@H](CO)C3)c2n1 [Abacavir Sulfate] ?
Resp: 98.5

Req: What value of measured growth yield is listed for N=C(N)c1ccc(OCCCCCOc2ccc(C(=N)N)cc2)cc1 [Pentamidine isethionate] ?
Resp: 1.78
